assay: Inhibition of human RNase H by FRET assay
// reported IC50 per item
# number only, unit µM dropped from output

- INPUT SMILES: "C[C@H]1O[C@H](Oc2c(-c3ccc(O)cc3)oc3cc(O)cc(O)c3c2=O)[C@@H](O)[C@@H](OC(=O)c2cc(O)c(O)c(O)c2)[C@H]1O"
  REPORTED RESULT: 7.25
- INPUT SMILES: "O=C(OC[C@H]1O[C@@H](OC(=O)c2cc(O)c(O)c(O)c2)[C@H](OC(=O)c2cc(O)c(O)c(O)c2)[C@@H](O)[C@@H]1O)c1cc(O)c(O)c(O)c1"
  REPORTED RESULT: 0.55
- INPUT SMILES: "C[C@@H]1O[C@@H](Oc2c(-c3ccc(O)c(O)c3)oc3cc(O)cc(O)c3c2=O)[C@H](O)[C@H](O)[C@H]1O"
  REPORTED RESULT: 12.5
- INPUT SMILES: "O=C(OC[C@H]1O[C@@H](Oc2ccc(O)cc2)[C@H](OC(=O)c2cc(O)c(O)c(O)c2)[C@@H](O)[C@@H]1O)c1cc(O)c(O)c(O)c1"
  REPORTED RESULT: 0.55

GET /value?item= O=C(OC[C@H]1O[C@@H](Oc2c(-c3ccc(O)cc3)oc3cc(O)cc(O)c3c2=O)[C@H](O)[C@@H](O)[C@@H]1O)c1cc(O)c(O)c(O)c1 &field=IC50 returns 9.5

The values you see were collected from ChEMBL document CHEMBL1156656.
